# Tested on: EKVX NSCLC
# METHOD_DESCRIPTION: NCI tumour cell line growth inhibition, 48 h
Parameter TGI: see the listing below.

O=C(Nc1ccc(-c2ccccc2)cc1)C1CCN(S(=O)(=O)c2ccccc2Cl)CC1; > 100 µM
CCOC(=O)/C=C(/C(=O)OCC)n1ccc(N)nc1=O; > 100 µM
N=C(N)c1ccc(N=Nc2c(O)ccc3c2[nH]c2ccccc23)cc1; > 100 µM
CC(C)C(=O)/C=C/c1ccc(Br)cc1; 50.9 µM
CCC1(C(=O)OC(C)(C)C)OC12C(C)CCCC2C (stereo not given); > 100 µM
N#C/C(=C/N1CCN(C(=O)c2ccco2)C1=S)C(=O)c1ccccc1; 48 µM
CC(=O)C1=C(C)NC2C=CC=CN12 (stereo not given); > 100 µM
O=C(O)CC[N+]1=CCC(c2ccccc2)(c2ccccc2)O1; > 100 µM
CC(C)CCCC(C)[C@H]1CCC2[C@H]3C(CC[C@@]21C)[C@@]1(C)CCC=C[C@]12C[C@@H]2[C@@H]3O (stereo not given in full); > 100 µM

Give TGI for COC(=O)[C@H](Cc1ccccc1)NC(=O)[C@H](Cc1ccccc1)NC(=O)[C@@H]1CCCN1C(=O)N[C@H]1C2C=CC(C2)C1C(=O)N1CCC[C@H]1C(=O)N[C@@H](C)C(=O)N[C@H](C(=O)OC)C(C)C (stereo not given in full)
> 100 µM

----------
# Test system: OVCAR-8 ovarian
# METHOD_DESCRIPTION: NCI tumour cell line growth inhibition, 48 h
PROPERTY_MEASURED: TGI

CC(C)N=c1cc2n(-c3ccc(Cl)cc3)c3ccccc3nc-2cc1Nc1ccc(Cl)cc1; > 100 µM
COc1cc(C2SCC(=O)N2c2ccc(-c3ccc(-n4c(-c5ccccc5)nc5ccccc5c4=O)cc3)cc2)cc(OC)c1OC (stereo not drawn); > 100 µM
COc1ccc(Nc2nc(NS(=O)(=O)c3cc(C)c(Cl)cc3S)n[nH]2)cc1; > 100 µM
COc1ccc(/C(Cl)=C(\C=O)c2ccc(F)cc2)cc1OC; > 100 µM
C[n+]1cc(C(O)c2ccc3c(c2)OCO3)c2ccccc2c1 (stereo not drawn); > 100 µM

Identify measured TGI associated with O=C1Nc2c(ccc(Cl)c2I)C1=O
76.7 µM

Give recorded TGI. O=C(Nc1ccc(-c2ccccc2)cc1)C1CCN(S(=O)(=O)c2ccccc2Cl)CC1
57.1 µM

Please report the measured TGI for C[C@]12CC[C@@H]3c4ccc(O)cc4CC[C@H]3[C@@H]1CC[C@@H]2NS(=O)(=O)c1cccc(F)c1
15.8 µM

Give me measured TGI, please, for this molecule: O=c1nc2c(c(-c3ccccc3Cl)[nH]1)COC/C2=C\c1ccccc1Cl
> 100 µM

Look up and state reported TGI for O=C1c2ccccc2CCCCCCCCCCC12OCCCO2
> 100 µM

Find the measured TGI of COc1cc(Nc2c3ccccc3nc3ccccc23)ccc1NS(C)(=O)=O and report it.
17.2 µM

Read off the recorded TGI for CN(O)C(=O)c1cccc(Cl)c1
> 100 µM

Output TGI of O=C(Nc1ccc(-n2cc(-c3ccncc3)c(-c3ccc(Cl)c(O)c3)n2)cc1)Nc1ccc(Cl)c(C(F)(F)F)c1
4.8 µM

Recall and state the measured TGI for NC(N)=NCCCCCNc1noc(Cc2c[nH]c3cc(Br)ccc23)n1 .
> 100 µM

Return reported TGI. Input molecule: C[C@H](N)C(=O)Nc1ccc(-c2nc3ccccc3s2)cc1
66.8 µM

Hello, please tell me recorded TGI for this one: O=c1[nH]/c(=C/c2ccc(OCc3ccccc3)cn2)c(=O)[nH]/c1=C/c1ccc(O)cc1
> 32.4 µM

Fill in reported TGI for this entry: Nc1ccc2[nH]c3c(-c4ccccc4)nccc3c2c1
> 100 µM

----------
# Test system: K-562 leukemia
# METHOD_DESCRIPTION: NCI tumour cell line growth inhibition, 48 h; in the data active = GI50 below about 0.43 µM; inactive = the rest
API: response.call in active, inactive

COc1cc(C2=C(c3cn(C)c4ccccc34)COC2=O)cc(OC)c1OC; active

# fetch the recorded call for N.N.N.N.[Cl-].[Co+3].[N-]=[N+]=[N-].[N-]=[N+]=[N-] here
inactive

What classification did CC(=O)/C=C/c1ccc(C#Cc2ccccc2)s1 end up with in this test?
inactive

----------
# Test system: SR leukemia
# METHOD_DESCRIPTION: NCI tumour cell line growth inhibition, 48 h; in the data active = GI50 below about 0.43 µM; inactive = the rest
Reply using exactly one outcome from 1 = active, 0 = inactive

Example entries begin here.
COc1ccc2c(c1)C(C)Cc1c(ncnc1-n1c(C)nc3ccccc31)N2C (centres undefined); 1
COc1cc(C2=C(c3cn(C)c4ccccc34)COC2=O)cc(OC)c1OC; 1
COc1cc2c3c(n(CCCN(C)C)c(=O)c2cc1OC)-c1ccccc1C3=O; 1

Next item in the queue.
Hi, do you know how C=C1C(=O)O[C@H]2[C@H]1CC/C(COC(=O)c1ccc(Cl)nc1)=C\CC[C@@]1(C)O[C@@H]21 came out in this test?
0

----------
# Test system: M14 melanoma
# METHOD_DESCRIPTION: NCI tumour cell line growth inhibition, 48 h
PROPERTY_MEASURED: TGI

GET TGI where system = M14 melanoma and item = O=c1c2ncn(COCCCl)c2n(-c2ccccc2)c(=S)n1-c1ccccc1
> 100 µM

Enter measured TGI, system M14 melanoma, for the compound shown: CCCCOC(=O)NC(=O)c1cn(CCCOC(=O)NCCCCCCNC(=O)OCCCn2cc(C(=O)NC(=O)OCCCC)c(=O)[nH]c2=O)c(=O)[nH]c1=O
> 100 µM

Please indicate recorded TGI of O=C1NC(N/N=C/C(O)C(O)C(O)CO)=N/C1=C\c1ccco1 (centres undefined) measured with M14 melanoma.
> 100 µM

Give TGI only, for C=CCNC(=O)N(CCC)CCCCC(NC(C)=O)C(=O)NCc1ccccc1 (centres undefined) , using M14 melanoma data.
> 100 µM

State measured TGI of the compound Oc1cn(-c2ccc(Cl)cc2)nc1-c1n[nH]c(=S)n1C1CCCCC1 with M14 melanoma.
38.7 µM

Report measured TGI on M14 melanoma; entry: CN(C)Cc1cc(C(=O)/C=C/c2ccccc2Cl)cc(CN(C)C)c1O
23.3 µM

----------
# Test system: HCT-116 colon
# METHOD_DESCRIPTION: NCI tumour cell line growth inhibition, 48 h
PROPERTY_MEASURED: TGI (µM)
Return type: number; implicit unit µM.

O=C(COc1ccc(/C=C2\CSc3ccccc3C2=O)cc1)Nc1nccs1; 14.7
COc1ccc(/C(Cl)=C(\C=O)c2ccc(F)cc2)cc1OC; 31

Continue with the molecule presented below.
Name the recorded TGI of the molecule listed here: N#C/C(=C/N1CCN(C(=O)c2ccco2)C1=S)C(=O)c1ccccc1
57

----------
Each record here notes measured TGI.
# System: MDA-MB-231 breast
# METHOD_DESCRIPTION: NCI tumour cell line growth inhibition, 48 h

COc1ccc(-c2c[nH]c(=S)n2-c2ccc(OC)cc2)cc1; > 50 µM
CCOC(=O)c1c[nH]c2oc(/C=N/N3CC(CN4CCOCC4)OC3=O)cc2c1=O (centres undefined); > 100 µM

Consider the compound CC1CCC(=O)C(C(=O)CC2CC(=O)NC(=O)C2)C1 (centres undefined) tested on MDA-MB-231 breast; state its TGI.
> 100 µM

Write down measured TGI (MDA-MB-231 breast) for this compound. CC1Cn2c(nc3ccccc32)NC1=O (centres undefined)
> 100 µM

----------
Each record here notes measured TGI.
# Test system: RXF 393 renal
# METHOD_DESCRIPTION: NCI tumour cell line growth inhibition, 48 h

# annotated cases, reported TGI shown
CC1CCOc2ccc(cc2)C=Nc2ccc(cc2)CCc2ccc(cc2)N=Cc2ccc(cc2)OCC1 (configuration not stated); > 100 µM
NCCN=C(Nc1ccccc1)Nc1ccccc1; > 100 µM
CNC(=O)Oc1ccc(-c2cn3cc(OC(=O)NC)ccc3n2)cc1; > 100 µM
O=C(O)c1ccc(S(=O)(=O)c2ccccc2[N+](=O)[O-])cc1; > 10 µM
C/C=C/C(O)P1(=O)N(Cc2ccccc2)[C@@H]2CCCC[C@H]2N1Cc1ccccc1 (some centres not stated); > 25 µM

Look up and report measured TGI for this entry: O=C1[C@H]2ON(c3ccccc3)C(c3ccc(Cl)cc3)[C@H]2C(=O)N1c1ccc(Cc2ccc(N3C(=O)[C@@H]4ON(c5ccccc5)C(c5ccc(Cl)cc5)[C@@H]4C3=O)cc2)cc1 (some centres not stated)
> 100 µM

Give reported TGI value for COC(=O)C1=C2SCc3cccc(c3)CSC3=C(C(=O)OC)SC(=C(S2)S1)S3
> 100 µM

Note TGI for the compound shown: CCOC(=N)CC(=O)Nc1cccc(C)c1C
> 100 µM

Using the record for CCC(C#N)NC(=O)NC(C#N)CC (configuration not stated) , state its measured TGI.
> 100 µM

// fetch TGI given entry c1cc2nnnn2nc1N1CCCC1
> 100 µM

Answer with reported TGI of CCOC(=O)CNC(=O)c1ccccc1Nc1ccnc(C(F)(F)F)c1
> 64.4 µM
